Numbers sourced from PubChem BioAssay AID1159580.

Reported normalized growth values for the following compounds.
experiment: chemical genetic growth profiling, strain panel (AID 1159580);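 note: tested at 20 µM; growth read once vehicle control cultures reached saturation at 30 °C; 1 = growth at the plate median or of vehicle wells; lower values mean less growth of the strain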; settings: S. cerevisiae deletion strains, growth OD, locus YMR223W, strain ubp8, active compounds read low
Among all 5,500 compounds or so, about 2,000 (36%) were called active. Inconclusive results (about 18%) are left out. Some of the results follow.

{"columns": ["Compound", "normalized growth"],
 "data": [
  ["Cc1ccc(S(=O)(=O)NC(=O)NN2CC3CCCC3C2)cc1 (stereo unspecified)", 1.03],
  ["CC(=O)OC1CC[C@@]2(C)C(CC[C@]3(C)C2CCC2C4CC(C)(C)CCC4(C(=O)O)CC[C@]23C)C1(C)C (stereo partly specified)", 0.976],
  ["CC(=O)OC1CC(OC(C)=O)C2(C)C(CC(OC(C)=O)C3(C)C4=CC(=O)OC(=O)C4(C)CCC32)C1(C)C (stereo unspecified)", 1],
  ["CCOP(=S)(OCC)Oc1nc(Cl)c(Cl)cc1Cl", 0.988],
  ["COc1ccc2c3c([nH]c2c1)C(C)=NCC3", 0.99],
  ["Nc1c2c(nc3ccccc13)CCCC2", 1.01],
  ["CC(C)(C#N)O[C@@H]1O[C@H](CO)[C@@H](O)[C@H](O)[C@H]1O", 0.984],
  ["CCOP(=S)(OCC)Oc1cc(C)nc(C(C)C)n1", 0.988],
  ["Nc1c2c(nc3ccccc13)CCCC2O (stereo unspecified)", 0.987],
  ["O=C(O)/C=C1\\CCCc2ccccc2C1O (stereo unspecified)", 0.991],
  ["Nc1c2ccccc2nc2ccccc12 (tested in a mixture with another compound)", 0.579]
]}

====

Reported normalized growth values for the following compounds.
test: chemical genetic growth profiling, strain panel (AID 1159580);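 note: tested at 20 µM; growth read once vehicle control cultures reached saturation at 30 °C; 1 = growth at the plate median or of vehicle wells; lower values mean less growth of the strain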; settings: S. cerevisiae deletion strains, growth OD, locus YGL078C, strain dbp3, active compounds read low
The campaign covered roughly 5,500 compounds. About 2,000 (36%) were called active. Roughly 18% stayed inconclusive and do not appear here. The list shows a part of the results.
Property measured: normalized growth

{"columns": ["Compound", "Quantitative result"],
 "data": [
  ["CC1(C)CC[C@]2(C(=O)O)CC[C@]3(C)C(=CCC4[C@@]5(C)CC[C@H](O)[C@@](C)(CO)C5CC[C@]43C)C2C1 (stereo partly drawn)", 0.994],
  ["CC(=O)O[C@H]1CC[C@@]2(C)C(CC[C@]3(C)C2CC=C2C4CC(C)(C)CC[C@]4(C)CC[C@]23C)C1(C)C (stereo partly drawn)", 1.06],
  ["C[C@@H]1OC(O[C@H]2C(O[C@H]3CC[C@@]4(C)C(CC[C@]5(C)C4CC=C4C6CC(C)(C)CC[C@]6(C(=O)O)CC[C@]45C)[C@]3(C)CO)OC[C@H](O)[C@@H]2O)[C@H](O)[C@H](O)[C@H]1O (stereo partly drawn)", 0.056]
]}

====

Reported normalized growth values for the following compounds.
experiment: chemical genetic growth profiling, strain panel (AID 1159580);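 note: tested at 20 µM; growth read once vehicle control cultures reached saturation at 30 °C; 1 = growth at the plate median or of vehicle wells; lower values mean less growth of the strain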; conditions: S. cerevisiae deletion strains, growth OD, locus YML120C, strain ndi1, active compounds read low
About 2,000 (36%) of roughly 5,500 compounds were called active. Roughly 18% stayed inconclusive and do not appear here. This is one part of the list.

{"columns": ["Compound", "normalized growth"],
 "data": [
  ["O=C1C(O)=C(O)C(=O)C(O)=C1O", 1.01],
  ["C[C@H]1[C@H](C)CC[C@]2(CO)CC[C@]3(C)C(=CCC4[C@@]5(C)CC[C@H](O)C(C)(C)C5CC[C@]43C)[C@H]12 (stereo partly drawn)", 0.988],
  ["CC1(C)CCC2(C(=O)O)CCC3(C)C(=CCC4C5(C)CCC(O)C(C)(C)C5C(O)CC43C)C2C1 (stereo not drawn)", 1.02],
  ["C/C=C(/C)C(=O)O[C@@H]1[C@H](OC(C)=O)[C@@]2(CO)C(CC1(C)C)C1=CCC3[C@@]4(C)CC[C@H](O[C@@H]5O[C@H](C(=O)O)[C@@H](O[C@@H]6O[C@H](CO)[C@@H](O)[C@H](O)[C@H]6O)[C@H](O)[C@H]5O[C@@H]5O[C@H](CO)[C@@H](O)[C@H](O)[C@H]5O)[C@](C)(CO)C4CC[C@@]3(C)[C@]1(C)C[C@H]2O (stereo partly drawn)", 1.01],
  ["CC1(C)CC[C@@]2(C(=O)O)C(C1)C1=CCC3[C@@]4(C)CC[C@H](O)C(C)(C)C4CC[C@@]3(C)[C@]1(C)C[C@@H]2O (stereo partly drawn)", 1.02],
  ["COc1cc(C(=O)O[C@H]2CC[C@@]3(C)[C@@H]4CC[C@H]5[C@]6(O)C[C@H](O)[C@@]7(O)[C@@H](CN8C[C@@H](C)CC[C@H]8[C@@]7(C)O)[C@]6(O)C[C@@]53O[C@]24O)cc(OC)c1OC", 1],
  ["COc1ccc2[nH]cc(CCN)c2c1", 1.01],
  ["CNCc1ccccc1", 1.02]
]}
